Tested on: D. abbreviatus adults
PROTOCOL SUMMARY: Open T-track dual choice olfactometer behavioral experiments
Type: in vivo, Diaprepes abbreviatus
Parameters: unit not given here
COND: males; stereotyped behavior in T-track olfactometer
REPORTED PROPERTY: reaching

C=CC(C)(O)CCC=C(C)C (racemic) [(±)-linalool]	52.5

I need reaching for every entry listed below, if you could help.
1. CC/C=C\CCO [cis-3-hexen-1-ol]
2. Cc1ccc(C(C)C)cc1O

30
45

What measured reaching goes with CC(C)=CCC[C@@H](C)CC=O [(R)-(+)-citronellal] ?
52.5

###

System: D. abbreviatus male antenna
PROTOCOL SUMMARY: Gas chromatography-linked electroantennogram detection (GC-EAD)
Design: species or system Diaprepes abbreviatus
COND: at the injected amounts 1 ng and 10 ng
REPORTED PROPERTY: antennal response (EAD) to injected synthetic compound

Some compounds with known antennal response (EAD) to injected synthetic compound results, for comparison:
CC(C)=CCC/C(C)=C/C=O [trans-citral, trans-citral (geranial)]	no responses
CC/C=C\CCO [cis-3-hexen-1-ol]	EAGs were recorded
CC(C)=CCC/C(C)=C/CO [trans-geraniol]	no responses
CCC/C=C/CO [trans-2-hexen-1-ol]	EAGs were recorded
CC(C)=CCC/C(C)=C\C=O [cis-citral, cis-citral (neral)]	no responses

Could you now consider this next compound?
What measured antennal response (EAD) to injected synthetic compound goes with CC(C)=CCC/C(C)=C\CO [nerol, cis-geraniol (nerol)] ?
no responses

###

Hi there, I'd appreciate the recorded reaching for every entry that follows.
System: D. abbreviatus adults
PROTOCOL SUMMARY: Open T-track dual choice olfactometer behavioral experiments
Type: in vivo, Diaprepes abbreviatus
COND: females; stereotyped behavior in T-track olfactometer
One number for each entry.

Some compounds with known reaching results, for comparison:
Cc1ccc(C(C)C)cc1O [carvacrol]	45
CC(C)=CCC[C@@H](C)CC=O [(R)-(+)-citronellal]	62.5
C=CC(C)(O)CCC=C(C)C (racemic) [(±)-linalool]	30

What is its reaching for D. abbreviatus adults? Entry: CC/C=C\CCO [cis-3-hexen-1-ol]
12.5
